Taken from PubChem BioAssay (NCATS).

target-entity: Cytochrome P450 2D6 (Homo sapiens) (UniProt P10635)
Sequence (P10635 whole entry, looked up): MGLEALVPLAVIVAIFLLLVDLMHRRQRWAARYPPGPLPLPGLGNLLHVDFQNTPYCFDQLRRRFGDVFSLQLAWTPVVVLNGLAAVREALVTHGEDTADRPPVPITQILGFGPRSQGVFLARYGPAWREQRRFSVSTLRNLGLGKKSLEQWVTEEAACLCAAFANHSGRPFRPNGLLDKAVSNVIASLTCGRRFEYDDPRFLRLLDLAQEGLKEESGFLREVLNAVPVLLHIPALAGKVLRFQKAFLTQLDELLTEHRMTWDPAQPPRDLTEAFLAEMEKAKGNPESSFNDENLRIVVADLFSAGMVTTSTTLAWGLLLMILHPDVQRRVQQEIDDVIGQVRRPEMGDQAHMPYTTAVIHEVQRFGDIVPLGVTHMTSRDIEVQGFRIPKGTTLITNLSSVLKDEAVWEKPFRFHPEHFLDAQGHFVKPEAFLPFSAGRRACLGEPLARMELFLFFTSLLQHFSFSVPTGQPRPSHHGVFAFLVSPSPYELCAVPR
assay-remarks: Cytochrome P450 family 2 subfamily D member 6 (CYP2D6) small molecule antagonists: luciferase biochemical (cell-free) qHTS assay (AID 1645840); further: on the % scale 0 is the no-effect control and ±100 the full control effect; nearly all actives have a fitted effect of over 55% in size
assay-conditions: P450-Glo CYP2D6 enzyme, luciferin luminescence, 1 h; series mostly up to 57.4 µM
Records with an inconclusive call do not appear. Activity calls are given as the source filed them. The call rests on the fitted dose curve; in most records, active means well fitted inhibition curve with a large enough effect in the repeat runs; inconclusive means weak or mixed curves; inactive means flat fitted curve, though single readings scatter.
Reply using exactly one outcome from y (active), n (inactive)

Answered examples (3):
- NCCNC(=O)c1ccc(Cl)cn1: n
- CCCCC(CC)COC(=O)/C=C/c1ccc(OC)cc1 (centres undefined): n
- O=C(Nc1ccc([N+](=O)[O-])cc1)Nc1ccc([N+](=O)[O-])cc1: n

Now examine the next entry.
Hi, do you know how C[C@H]1O[C@@H](O[C@H]2CC[C@@]3(C)[C@H](CC[C@@H]4[C@@H]3C[C@@H](O)[C@]3(C)[C@@H](C5=CC(=O)OC5)CC[C@]43O)C2)C[C@H](O)[C@@H]1O[C@H]1C[C@H](O)[C@H](O[C@H]2C[C@H](O)[C@H](O[C@@H]3O[C@H](CO)[C@@H](O)[C@H](O)[C@H]3O)[C@@H](C)O2)[C@@H](C)O1 came out in this test?
n

---

assay-remarks: qHTS of pediatric cancer cell lines to identify multiple opportunities for drug repurposing: Primary screen for A673 cells (AID 1347092); further: nearly all actives have a fitted effect of over 45% in size
assay-conditions: A673 Ewing sarcoma viability, CellTiter-Glo ATP luminescence, 48 h; series mostly up to 46 µM
Records with an inconclusive call do not appear. Active and inactive are the calls of the source. Calls follow the shape of the dose curve; as a rule, active = well fitted cell-killing curve with a large enough effect; inconclusive = small, poorly fitted or top-dose-only effect; inactive = no such curve, though single readings can be large or run the other way.
Reply using exactly one outcome from active, inactive

Answered examples (8):
• CCCCNC(=O)NS(=O)(=O)c1ccc(N)cc1 = inactive
• C#C[C@]1(O)CC[C@H]2[C@@H]3CCC4=CC(=O)CC[C@@H]4[C@H]3CC[C@@]21CC = inactive
• CC(=O)Nc1ccc(OC(=O)c2ccccc2OC(C)=O)cc1 = inactive
• Cn1c(=O)c2[nH]c(Br)nc2n(C)c1=O = inactive
• O=C1[C@H](CC[C@H](O)c2ccc(F)cc2)[C@@H](c2ccc(O)cc2)N1c1ccc(F)cc1 = inactive
• Cc1cc(-c2ccccc2)nnc1NCCN1CCOCC1 = inactive
• CCC1Nc2cc(Cl)c(S(N)(=O)=O)cc2S(=O)(=O)N1 (stereo not drawn) = inactive
• CC(=O)O[C@H]1C[C@@H]2CC[C@@H]3[C@H](CC[C@@]4(C)[C@H]3C[C@H]([N+]3(C)CCCCC3)[C@@H]4OC(C)=O)[C@@]2(C)C[C@@H]1N1CCCCC1 = inactive

Hi, do you know how CCN(CC)CCNC(=O)c1cc(Br)c(N)cc1OC came out in this test?
inactive

Hi, do you know how C=C[C@H]1CN2CC[C@H]1C[C@@H]2[C@@H](O)c1ccnc2ccc(OC)cc12 came out in this test?
inactive

Hi, do you know how CNCCCCOc1ccccc1Cc1ccccc1 came out in this test?
active

Hi, do you know how Nc1nc(Cl)nc2c1ncn2[C@@H]1O[C@H](CO)[C@@H](O)[C@@H]1F came out in this test?
active

Hi, do you know how CO[C@]12C[C@@H](COC(=O)c3cncc(Br)c3)CN(C)[C@@H]1Cc1cn(C)c3cccc2c13 came out in this test?
inactive

---

System: MCC-26
assay-remarks: qHTS assay to identify novel small-molecules to repurpose for Merkel cell carcinoma treatment (AID 1296009); further: nearly all actives have a fitted effect of over 60% in size
assay-conditions: MCC and control cell lines, CellTiter-Glo viability, 72 h; series mostly up to 46 µM
Inconclusive results are not listed. Active and inactive are the calls of the source. Calls come from the whole dose curve; as a rule, active = well fitted inhibition curve with a large enough effect; inconclusive = small, poorly fitted or top-dose-only effect; inactive = flat fitted curve, though single readings scatter.
Reply using exactly one outcome from 1 (yes) for active, 0 (no) for inactive

Answered examples (8):
- CCCCCCCCCCCCSCCOCCO: 0 (no)
- CC(=O)N[C@@H](CCC(=O)O)C(=O)O: 0 (no)
- CCCCc1cc2ccccc2c(OCCN(C)C)n1: 0 (no)
- CO[C@]12C[C@@H](COC(=O)c3cncc(Br)c3)CN(C)[C@@H]1Cc1cn(C)c3cccc2c13: 0 (no)
- C=C[C@@]1(C)CC(=O)[C@]2(O)[C@@]3(C)[C@@H](O)CCC(C)(C)[C@@H]3[C@H](O)[C@H](OC(C)=O)[C@@]2(C)O1: 0 (no)
- CCOC(=O)Nc1ccc2c(c1)N(C(=O)CCN1CCOCC1)c1ccccc1S2: 0 (no)
- CC(C)[C@@H]1CC[C@@H](C)CC1=O: 0 (no)
- CCN(CC)CCOC(=O)C(Cc1cccc2ccccc12)CC1CCCO1 (stereo unspecified): 0 (no)

Hi, do you know how Nc1nc(Cl)nc2c1ncn2[C@@H]1O[C@H](CO)[C@@H](O)[C@@H]1F came out in this test?
1 (yes)

Hi, do you know how OC[C@H]1O[C@@H]2O[C@H]3[C@H](O)[C@@H](O)[C@@H](O[C@H]4[C@H](O)[C@@H](O)[C@@H](O[C@H]5[C@H](O)[C@@H](O)[C@@H](O[C@H]6[C@H](O)[C@@H](O)[C@@H](O[C@H]7[C@H](O)[C@@H](O)[C@@H](O[C@H]8[C@H](O)[C@@H](O)[C@@H](O[C@H]1[C@H](O)[C@H]2O)O[C@@H]8CO)O[C@@H]7CO)O[C@@H]6CO)O[C@@H]5CO)O[C@@H]4CO)O[C@@H]3CO came out in this test?
0 (no)

Hi, do you know how CC1CCc2c(N3CCC(O)CC3)c(F)cc3c(=O)c(C(=O)O)cn1c23 (stereo unspecified) came out in this test?
0 (no)

---

assay-remarks: qHTS of pediatric cancer cell lines to identify multiple opportunities for drug repurposing: Primary screen for OHS-50 cells (AID 1347103); further: nearly all actives have a fitted effect of over 40% in size
assay-conditions: OHS-50 osteosarcoma viability, CellTiter-Glo luminescence, 48 h; series mostly up to 57.3 µM
Records with an inconclusive call do not appear. Active and inactive are the calls of the source. Calls follow the shape of the dose curve; as a rule, active = well fitted cell-killing curve with a large enough effect; inconclusive = small, poorly fitted or top-dose-only effect; inactive = no such curve, though single readings can be large or run the other way.
Reply using exactly one outcome from 1 for active, 0 for inactive

Answered examples (5):
* Cc1cc(NS(=O)(=O)c2ccc(N)cc2)nc(C)n1 | 0
* CC(=O)OCC1=C(C(=O)O)N2C(=O)[C@@H](NC(=O)CSc3ccncc3)[C@H]2SC1 | 0
* CCOC(=O)c1c(N)sc2c1CCN(Cc1ccccc1)C2 | 1
* Nc1nc(-c2ccccc2)c(Br)c(=O)[nH]1 | 0
* C#C[C@]1(O)CC[C@H]2[C@@H]3CCC4=CC(=O)CC[C@@H]4[C@H]3CC[C@@]21CC | 0

Hi, do you know how CCC1NC(=O)c2cc(S(N)(=O)=O)c(Cl)cc2N1 (stereo unspecified) came out in this test?
0

Hi, do you know how OC[C@H]1O[C@@H](Oc2ccc(O)cc2)[C@H](O)[C@@H](O)[C@@H]1O came out in this test?
0

Hi, do you know how NCCNc1cccc2ccccc12 came out in this test?
0

Hi, do you know how C=C1c2cccc(O)c2C(O)=C2C(=O)[C@]3(O)C(O)=C(C(N)=O)C(=O)[C@@H](N(C)C)[C@@H]3[C@@H](O)[C@H]12 came out in this test?
0

Hi, do you know how CCOc1ccccc1OCCN[C@H](C)Cc1ccc(OC)c(S(N)(=O)=O)c1 came out in this test?
0

---

assay-remarks: qHTS Assay for Identifying Gametocytocidal Compounds (AID 743244);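 further: on the % scale 0 is the no-effect control and ±100 the full control effect; actives lower the fluorescent signal which means gametocytes are killed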
assay-conditions: P. falciparum 3D7 stage III-V gametocytes, alamarBlue, 72 h; hits give low values
Inconclusive results are not listed.
readout: max response (%)
# output: bare number, implied unit %

- O=S(c1cc(Cl)cc(Cl)c1O)c1cc(Cl)cc(Cl)c1O: 11.4

For the compound CCOc1cc(OCC)c(C(=O)CCC(=O)O)cc1OCC , report max response.
11

For the compound FC1(F)C(F)(F)C(F)(F)C2(F)C(F)(F)C(F)(F)C(F)(F)C(F)(F)C2(F)C1(F)F (stereo not drawn) , report max response.
-4.02

For the compound CC(=O)O[C@]1(C(C)=O)CC[C@H]2[C@@H]3C=C(C)C4=CC(=O)CC[C@]4(C)[C@H]3CC[C@@]21C , report max response.
3.72

For the compound COc1cc(NS(=O)(=O)c2ccc(N)cc2)ncn1 , report max response.
-7.94

For the compound O=S(=O)(O)c1ccc(O)cc1 , report max response.
19.1

For the compound O=C(c1ccc(F)cc1)C1CCN(CCn2c(=S)[nH]c3ccccc3c2=O)CC1 , report max response.
-2.47

For the compound CCOc1ccccc1C(N)=O , report max response.
14

For the compound COc1ccc(/C=N/NC(=O)c2ccncc2)cc1OC , report max response.
-3.84

For the compound CN1CCC[C@@H]1CCO[C@](C)(c1ccccc1)c1ccc(Cl)cc1 , report max response.
-0.809

For the compound Cc1ccccc1OCC(O)CO (stereo not drawn) , report max response.
-6.04

For the compound CC(=O)Oc1ccc(C)cc1 , report max response.
-2.81

For the compound C[C@H]1[C@H]2CC[C@H]3[C@@H]4CC=C5C[C@@H](N(C)C)CC[C@]5(C)[C@H]4CC[C@]23CN1C , report max response.
-6.8

For the compound Nc1nc(N)c(-c2ccccc2)s1 , report max response.
-3.45
